Target: T1, RAD52(209) (human, UniProt P43351 1-209)
T1 sequence: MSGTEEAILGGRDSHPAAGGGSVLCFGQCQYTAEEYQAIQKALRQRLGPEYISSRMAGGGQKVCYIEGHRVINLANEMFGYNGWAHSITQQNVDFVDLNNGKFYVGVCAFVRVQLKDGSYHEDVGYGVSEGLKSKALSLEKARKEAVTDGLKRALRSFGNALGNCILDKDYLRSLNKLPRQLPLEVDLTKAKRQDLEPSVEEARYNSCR
Test: EMSA; 37 C; Hill 4.1 ± 0.4; EMSA: 25 mM Tris-acetate, 2 mM Mg(OAc)2, 1 mM DTT, pH 7.5, 10 nM ssDNA, 25 C 10 min or 37 C 5 min; mass photometry: 20 mM Tris-HCl, 50 mM NaCl, pH 7.5
Details: protein: recombinant; tags: His-tag (pET-15b); chain copies: 11
readout name: Kd (nM)
Answer in nM, number only, no unit symbol.

Problem: Find the recorded Kd belonging to 60 nt (ssDNA) DNA: TCCTTTTGATAAGAGGTCATTTTTGCGGATGGCTTAGAGCTTAATTGCTTTTTTTTTTTT and report it.
Solution: 127
